Biological target: Plasma kallikrein (Homo sapiens, UniProt P03952)
Sequence (P03952 20-390 limits assumed): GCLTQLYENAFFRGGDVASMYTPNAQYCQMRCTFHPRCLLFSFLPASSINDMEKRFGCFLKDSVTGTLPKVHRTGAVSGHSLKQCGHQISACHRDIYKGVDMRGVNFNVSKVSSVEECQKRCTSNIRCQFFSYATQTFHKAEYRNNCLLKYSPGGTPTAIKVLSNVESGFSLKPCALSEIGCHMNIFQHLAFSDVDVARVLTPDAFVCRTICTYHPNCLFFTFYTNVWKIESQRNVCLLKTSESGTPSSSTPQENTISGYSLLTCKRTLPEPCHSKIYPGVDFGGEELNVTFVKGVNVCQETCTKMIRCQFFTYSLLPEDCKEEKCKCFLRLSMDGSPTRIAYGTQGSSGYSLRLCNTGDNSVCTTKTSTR
Sequence (P03952 391-638 limits assumed): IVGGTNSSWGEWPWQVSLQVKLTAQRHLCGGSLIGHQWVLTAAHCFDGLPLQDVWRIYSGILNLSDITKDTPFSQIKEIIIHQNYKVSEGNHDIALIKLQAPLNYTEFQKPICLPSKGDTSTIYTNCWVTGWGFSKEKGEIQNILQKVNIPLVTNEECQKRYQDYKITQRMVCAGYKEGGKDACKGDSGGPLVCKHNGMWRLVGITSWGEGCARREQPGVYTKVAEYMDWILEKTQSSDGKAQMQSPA
Experiment: Inhibition of plasma kallikrein (unknown origin)
measureName: Ki (nM)
The figure you give is taken to be in nM; do not add the unit.

// Ki lookup, key: CN1CCN(C(=O)C[C@H](NC(=O)/C=C/c2cc(Cl)ccc2-n2cnnn2)c2nc(-c3ccc4[nH]c(=O)cc(O)c4c3)c(Cl)[nH]2)CC1
7

====

Assay: Solubility in 50 mM pH 6.5 phosphate buffer using amorphous form of compound
Format: physicochemical
Below is a list of entries, each paired with its recorded solubility value.
The figure you give is taken to be in µg/mL; do not add the unit.

Worked set:
COC(=O)Nc1ccc(-c2nc([C@H](CC(=O)N3CCN(C)CC3)NC(=O)/C=C/c3cc(Cl)ccc3-n3cnnn3)[nH]c2Cl)cc1
44
CN1CCN(C(=O)C[C@H](NC(=O)/C=C/c2cc(Cl)ccc2-n2cnnn2)c2nc(-c3ccc4[nH]c(=O)cc(O)c4c3)c(Cl)[nH]2)CC1
17
COC(=O)Nc1ccc(-c2nc([C@H](CC(=O)N3CCS(=O)(=O)CC3)NC(=O)/C=C/c3cc(Cl)ccc3-n3cnnn3)[nH]c2Cl)cc1
1
COC(=O)Nc1ccc(-c2nc([C@H](CC(=O)N3CCOCC3)NC(=O)/C=C/c3cc(Cl)ccc3-n3cnnn3)[nH]c2Cl)cc1
1

Continue with the next compound.
// solubility lookup, key: COC(=O)Nc1ccc(-c2nc([C@H](CC(=O)N3CCN(C(C)=O)CC3)NC(=O)/C=C/c3cc(Cl)ccc3-n3cnnn3)[nH]c2Cl)cc1
3
